As shown below, each of these compounds has a reported IC50 value.
Target: Isoform Bcl-X(L) of Bcl-2-like protein 1 (Bcl-xL) (Homo sapiens, UniProt Q07817)
Sequence (Q07817 whole entry G70A, canonical isoform): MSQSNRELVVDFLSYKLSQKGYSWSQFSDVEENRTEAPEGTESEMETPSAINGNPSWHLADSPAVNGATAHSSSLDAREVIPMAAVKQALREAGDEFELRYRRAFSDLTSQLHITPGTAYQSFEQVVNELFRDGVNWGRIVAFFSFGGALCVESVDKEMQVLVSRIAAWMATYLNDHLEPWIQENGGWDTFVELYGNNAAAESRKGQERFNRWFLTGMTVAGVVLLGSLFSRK
Experiment: DELFIA Assay

Cpd smiles: N#Cc1c(-c2ccc3c(c2)OCO3)cc(-c2ccccc2O)[nH]c1=O
Assay target: Isoform Bcl-X(L) of Bcl-2-like protein 1 (Bcl-xL) (Homo sapiens, UniProt Q07817)
IC50 (µM): 5.1
//
Cpd smiles: Cc1csc(NC(=O)c2ccccc2C(=O)O)c1-c1nc2ccccc2s1
Assay target: Isoform Bcl-X(L) of Bcl-2-like protein 1 (Bcl-xL) (Homo sapiens, UniProt Q07817)
IC50 (µM): 3.3
//
Cpd smiles: O=C(O)c1ccccc1C(=O)c1ccc(Sc2ccc(Cl)cc2)c([N+](=O)[O-])c1
Assay target: Isoform Bcl-X(L) of Bcl-2-like protein 1 (Bcl-xL) (Homo sapiens, UniProt Q07817)
IC50 (µM): 0.5
//
Cpd smiles: O=C(O)c1ccccc1C(=O)c1ccc(Sc2ccccc2)c([N+](=O)[O-])c1
Assay target: Isoform Bcl-X(L) of Bcl-2-like protein 1 (Bcl-xL) (Homo sapiens, UniProt Q07817)
IC50 (µM): 5.7

* * *

Biological target: Isoform Bcl-X(L) of Bcl-2-like protein 1 (Bcl-xL) (Homo sapiens)
Experiment: DELFIA Assay
Property label: Kd (µM)

Cpd smiles: N#Cc1c(-c2ccc3c(c2)OCO3)cc(-c2ccccc2O)[nH]c1=O
Quantity unit: µM
Measured result: 19.8
